Just for reference, patent US10196357B2 is where these values come from.

Assay: brain exposure after oral administration
Assay type: in vivo, male CD-1 mice
Details: male, CD-1, mouse, brain, po, 50 mg/kg, Male CD-1 mice, single PO dose 50 mg/kg (Group 4), 1 hr, Mean; read-out: KX2-391 Brain Concentrations, Mean
REPORTED_METRIC: concentration at 1 hr
Answer format reminder: number followed by unit.

Briefly, concentration at 1 hr measured for O=C(Cc1ccc(-c2ccc(OCCN3CCOCC3)cc2)cn1)NCc1ccccc1 : 1100 ng/g

====

Tested on: U87
Assay: brain tumor cell growth inhibition, U87
Type: cell-based, Human
Conditions: U87, glioblastoma; astrocytoma; read-out: IC50 (title: GI50)
REPORTED_METRIC: IC50
// unit must come after the numeric part

Input O=C(Cc1ccc(-c2ccc(OCCN3CCOCC3)cc2)cn1)NCc1ccccc1 . Output IC50: 33.1 nM

====

Assay: plasma pharmacokinetics after IV administration
Assay type: in vivo, Male CD-1 mice
Conditions: male, CD-1, mouse, plasma, iv, 5 mg/kg, single IV dose 5 mg/kg, 6 hr; read-out: Plasma Concentrations, Mean
REPORTED_METRIC: concentration at 6 h
In your response, the unit should come after the numeric value.

get_value(item= CN1CCN(CCOc2ccc(-c3ccc(CC(=O)NCc4cccc(F)c4)cc3)c(F)c2)CC1 , readout=concentration at 6 h) returns 43.2 ng/mL

====

Test: plasma exposure after oral administration
Assay type: in vivo, male CD-1 mice
Conditions: male, CD-1, mouse, plasma, po, 50 mg/kg, single PO dose 50 mg/kg (Group 2), 1 hr; read-out: Plasma Concentrations, Group A, B, C
REPORTED_METRIC: concentration at 1 h (ng/mL)
# unit: ng/mL | format: bare number

concentration at 1 h recorded for this molecule, O=C(Cc1ccc(-c2ccc(OCCN3CCOCC3)cc2)cn1)NCc1ccccc1 , is 2370

====

Assay: plasma pharmacokinetics after oral administration
Assay type: in vivo, Male CD-1 mice
Settings: male, CD-1, mouse, po, 25 mg/kg, single PO dose 25 mg/kg, 6 hr, read-out: Plasma Concentrations, Mean
Description: [drawing 435] are described below. Plasma concentrations were measured in mice after oral and IV administration. Both oral and IV doses were formulated in saline. Male CD-1 mice were dosed after an overnight fast and fed 4 hours post-dose. […] The plasma concentration of 139 was measured at 0 min, 30 min, 1 h, 3 h, 6 h, 12 h, and 24 h time points. As discussed above for the i.v. administration, the analyte was extracted and analyzed by HPLC/mass spec.
REPORTED_METRIC: concentration at 6 h
Mention the unit after the number when you answer.

The compound listed as CN1CCN(CCOc2ccc(-c3ccc(CC(=O)NCc4cccc(F)c4)cc3)c(F)c2)CC1 has a reported concentration at 6 h of 119 ng/mL

====

Test: plasma exposure after oral administration
Format: in vivo, male CD-1 mice
Conditions: male, CD-1, mouse, plasma, po, 10 mg/kg, single PO dose 10 mg/kg (Group 1), 1 hr; read-out: Plasma Concentrations, Mean
REPORTED_METRIC: concentration at 1 h (ng/mL)
Write down the numeric answer in ng/mL and omit the unit.

The compound identified as O=C(Cc1ccc(-c2ccc(OCCN3CCOCC3)cc2)cn1)NCc1ccccc1 registered its concentration at 1 h at 363

====

Experiment: brain exposure after oral administration
Format: in vivo, male CD-1 mice
Settings: male, CD-1, mouse, brain and plasma; single oral dose 50 mg/kg; read-out: AUClast Brain/AUClast Plasma Ratio
REPORTED_METRIC: Kp
Lab note: jot the number down without any unit.

// O=C(Cc1ccc(-c2ccc(OCCN3CCOCC3)cc2)cn1)NCc1ccccc1 [KX2-391] : Kp value = 0.39

====

Test: plasma pharmacokinetics after IV administration
Format: in vivo, Male CD-1 mice
Conditions: male, CD-1, mouse, plasma, iv, 5 mg/kg, single IV dose 5 mg/kg, 1 hr; read-out: Plasma Concentrations, Mean
REPORTED_METRIC: concentration at 1 h (ng/mL)
Answer in ng/mL, number only, no unit symbol.

Documented concentration at 1 h of CN1CCN(CCOc2ccc(-c3ccc(CC(=O)NCc4cccc(F)c4)cc3)c(F)c2)CC1 : 178

====

Assay: plasma pharmacokinetics after oral administration
Type: in vivo, Male CD-1 mice
Conditions: male, CD-1, mouse, po, 25 mg/kg, single PO dose 25 mg/kg, 24 hr, read-out: Plasma Concentrations, Group A, B, C
REPORTED_METRIC: concentration at 24 h (ng/mL)
Report the value in ng/mL with no unit label.

Query CN1CCN(CCOc2ccc(-c3ccc(CC(=O)NCc4cccc(F)c4)cc3)c(F)c2)CC1 yields concentration at 24 h of 31.2

====

Experiment: brain exposure after oral administration
Type: in vivo, male CD-1 mice
Conditions: male, CD-1, mouse, brain, po, 50 mg/kg, Male CD-1 mice, single PO dose 50 mg/kg (Group 4), 2 hr, Group A; read-out: KX2-391 Brain Concentrations, Group A
REPORTED_METRIC: concentration at 2 hr
Give the value; after it, write the unit.

The compound listed as O=C(Cc1ccc(-c2ccc(OCCN3CCOCC3)cc2)cn1)NCc1ccccc1 [KX2-391] has a reported concentration at 2 hr of 414 ng/g

====

Assay: plasma exposure after oral administration
Type: in vivo, male CD-1 mice
Details: male, CD-1, mouse; Plasma, single oral dose 10 mg/kg
REPORTED_METRIC: AUC(0-t) (ng·h/mL)
Provide only the numeric value, understood in ng·h/mL.

Record O=C(Cc1ccc(-c2ccc(OCCN3CCOCC3)cc2)cn1)NCc1ccccc1 , field AUC(0-t): 1500

====

Assay: plasma pharmacokinetics after IV administration
Type: in vivo, Male CD-1 mice
Settings: male, CD-1, mouse; plasma, single IV dose 5 mg/kg
REPORTED_METRIC: AUC(0-t)

So, CN1CCN(CCOc2ccc(-c3ccc(CC(=O)NCc4cccc(F)c4)cc3)c(F)c2)CC1 [Compound 139] ? Its AUC(0-t) was 1410 ng·h/mL

====

Experiment: plasma exposure after oral administration
Type: in vivo, male CD-1 mice
Details: male, CD-1, mouse, plasma, po, 10 mg/kg, single PO dose 10 mg/kg (Group 1), 5 hr; read-out: Plasma Concentrations, Mean
REPORTED_METRIC: concentration at 5 h (ng/mL)
A number alone suffices; assume ng/mL.

Recorded result, O=C(Cc1ccc(-c2ccc(OCCN3CCOCC3)cc2)cn1)NCc1ccccc1 , concentration at 5 h: 147

====

Assay: plasma exposure after oral administration
Type: in vivo, male CD-1 mice
Details: male, CD-1, mouse, plasma, po, 50 mg/kg, single PO dose 50 mg/kg (Group 2), 1 hr; read-out: Plasma Concentrations, Mean
REPORTED_METRIC: concentration at 1 h (ng/mL)
Write the value in ng/mL as a bare number.

Measured concentration at 1 h of O=C(Cc1ccc(-c2ccc(OCCN3CCOCC3)cc2)cn1)NCc1ccccc1 [KX2-391] : 2060

====

System: HuH7
Experiment: MTT growth inhibition, HuH7
Format: cell-based, human
Conditions: HuH7, 8.0×10^3 cells/wells, […] FBS @ 78 Hr
REPORTED_METRIC: IC50 (nM)
# unit: nM | format: bare number

Short answer on HuH7 for O=C(Cc1ccc(-c2ccc(OCCN3CCOCC3)cc2)cn1)NCc1ccccc1 , IC50: 9

====

Assay: brain exposure after oral administration
Type: in vivo, male CD-1 mice
Settings: male, CD-1, mouse; Brain, single oral dose 50 mg/kg
REPORTED_METRIC: Cmax

Cmax reading for O=C(Cc1ccc(-c2ccc(OCCN3CCOCC3)cc2)cn1)NCc1ccccc1 : 3690 ng/g

====

Experiment: plasma pharmacokinetics after oral administration
Assay type: in vivo, Male CD-1 mice
Conditions: male, CD-1, mouse, single oral dose 25 mg/kg
REPORTED_METRIC: Tmax (h)
The response must be a number in h with no trailing unit.

Memo: CN1CCN(CCOc2ccc(-c3ccc(CC(=O)NCc4cccc(F)c4)cc3)c(F)c2)CC1 , reported Tmax: 3

====

Assay: plasma pharmacokinetics after IV administration
Assay type: in vivo, Male CD-1 mice
Conditions: male, CD-1, mouse, plasma, iv, 5 mg/kg, single IV dose 5 mg/kg, 1 hr; read-out: Plasma Concentrations, Group A, B, C
REPORTED_METRIC: concentration at 1 h (ng/mL)
The reply should be a number in ng/mL, with the unit left off.

The compound CN1CCN(CCOc2ccc(-c3ccc(CC(=O)NCc4cccc(F)c4)cc3)c(F)c2)CC1 [Compound 139] showed concentration at 1 h equal to 186

====

Experiment: plasma pharmacokinetics after oral administration
Format: in vivo, Male CD-1 mice
Settings: male, CD-1, mouse, single oral dose 25 mg/kg, estimated from 6, 12, 24 hours
Method: [drawing 435] are described below. Plasma concentrations were measured in mice after oral and IV administration. Both oral and IV doses were formulated in saline. Male CD-1 mice were dosed after an overnight fast and fed 4 hours post-dose. […] The plasma concentration of 139 was measured at 0 min, 30 min, 1 h, 3 h, 6 h, 12 h, and 24 h time points. As discussed above for the i.v. administration, the analyte was extracted and analyzed by HPLC/mass spec.
REPORTED_METRIC: half-life
// unit must come after the numeric part

According to the records, this compound CN1CCN(CCOc2ccc(-c3ccc(CC(=O)NCc4cccc(F)c4)cc3)c(F)c2)CC1 [Compound 139] displays half-life of 6.2 h
